Catalogue of pest or weed control at 15.625 g/ha readings, one per entry.
# Test system: ivy-leaved morning glory (Ipomoea hederacea)
# ASSAY NOTES: Test G Pre-Emergence Protocol
# Format: in vivo
# CONDITION PARAMETERS: Ipomoea, pre-emergence, 312 h, 15.625 g ai/ha, evaluated after 13 days, read-out: Morning-glory, Ivy-leaved damage rating (100=total damage to plant; 0=no damage to plant)

# MOLECULE, pest or weed control at 15.625 g/ha [%]
records = [
    ("COc1ccc([C@H]2CN(C)C(=O)[C@@H]2C(=O)Nc2ccccc2F)c(C)c1 (racemic)", 0),
    ("Cc1onc(NC(=O)[C@@H]2C(=O)N(C)C[C@H]2c2ccc(C(F)(F)F)cc2)c1Cl (racemic)", 0),
    ("CN1C[C@@H](c2cc(Cl)nc(Cl)c2)[C@H](C(=O)Nc2cccc(F)c2F)C1=O (racemic)", 0),
]
